assay: chemical genetic growth profiling, strain panel (AID 1159580);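 also: tested at 20 µM; growth read once vehicle control cultures reached saturation at 30 °C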; settings: S. cerevisiae deletion strains, growth OD, locus YNL183C, strain NPR1, stronger effect = lower value
Out of some 5,500 compounds screened, about 2,000 (36%) were called active. About 18% were inconclusive and are not listed. The list shows a part of the results.
Binary call on normalized growth with cut-off 0.9: strictly below means Met, and equality or higher means Not met.

Illustrative cases are given below, each with its answer.
Qu. Field: below-cutoff. Rule: recorded normalized growth strictly less than 0.9. Subject: C=C1C(N)CC2CC1C2(C)C (stereo not drawn)
Ans. Not met

Qu. Field: below-cutoff. Rule: recorded normalized growth strictly less than 0.9. Subject: `CN(C)CCC=C1c2ccccc2CCc2ccccc21`
Ans. Not met

Qu. Field: below-cutoff. Rule: recorded normalized growth strictly less than 0.9. Subject: `O=C1Nc2ccccc2/C1=N/N=C\c1cc(Br)cc(Br)c1O`
Ans. Met

Qu. Field: below-cutoff. Rule: recorded normalized growth strictly less than 0.9. Subject: CC(=O)O[C@H]1C[C@@H](O)C(C)(C)C2C[C@@H](OC(C)=O)[C@]3(C)C(CC[C@@]4(C)[C@H](c5ccoc5)OC(=O)C5OC543)[C@]21C (stereo partly drawn)
Ans. Not met

Qu. Field: below-cutoff. Rule: recorded normalized growth strictly less than 0.9. Subject: `CC(=O)Oc1cc(-c2coc3cc(OC(C)=O)c(OC(C)=O)c(OC(C)=O)c3c2=O)cc(OC(C)=O)c1OC(C)=O`
Ans. Not met

More entries:
Qu. Field: below-cutoff. Rule: recorded normalized growth strictly less than 0.9. Subject: `Cc1ncc(C[n+]2csc(CCO)c2C)c(=O)[nH]1`
Ans. Not met

Qu. Field: below-cutoff. Rule: recorded normalized growth strictly less than 0.9. Subject: `N[C@H](CO)Cc1ccccc1`
Ans. Not met

Qu. Field: below-cutoff. Rule: recorded normalized growth strictly less than 0.9. Subject: C=C1C2CC[C@@]3(C)[C@H](c4ccoc4)OC(=O)C[C@]13O[C@H]1CC(=O)C(C)(C)[C@H](C(O)C(=O)OC)[C@@]21C (stereo partly drawn)
Ans. Not met
